testSystem: human CD33 V165A (human, UniProt P20138 18-364)
Sequence (P20138 18-364 V165A limits assumed): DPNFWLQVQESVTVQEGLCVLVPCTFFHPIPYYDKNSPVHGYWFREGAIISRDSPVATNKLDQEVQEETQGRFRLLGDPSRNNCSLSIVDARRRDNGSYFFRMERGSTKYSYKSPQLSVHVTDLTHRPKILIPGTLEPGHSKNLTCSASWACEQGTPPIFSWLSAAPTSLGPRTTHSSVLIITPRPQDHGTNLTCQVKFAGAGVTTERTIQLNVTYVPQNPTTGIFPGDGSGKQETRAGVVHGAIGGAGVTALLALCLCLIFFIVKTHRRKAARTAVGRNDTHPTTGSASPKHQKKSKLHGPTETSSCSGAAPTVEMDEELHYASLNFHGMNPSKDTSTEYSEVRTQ
methodSummary: flow cytometry on HEK293-T, alanine scan
The reader will find reported Mean % WT Binding values listed item by item below.
valueType: Mean % WT Binding (% WT binding)

Refmab #3 (antibody, V domains shown, The alanine scan used IgG or Fab) VH: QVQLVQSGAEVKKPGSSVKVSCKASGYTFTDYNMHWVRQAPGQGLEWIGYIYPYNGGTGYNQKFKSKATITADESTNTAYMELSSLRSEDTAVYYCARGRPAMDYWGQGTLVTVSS VL: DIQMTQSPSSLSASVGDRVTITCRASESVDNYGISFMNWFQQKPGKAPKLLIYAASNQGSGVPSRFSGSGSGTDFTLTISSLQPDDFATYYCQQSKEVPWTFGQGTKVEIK : 116
Refmab #2 (antibody, V domains shown, The alanine scan used IgG or Fab) VH: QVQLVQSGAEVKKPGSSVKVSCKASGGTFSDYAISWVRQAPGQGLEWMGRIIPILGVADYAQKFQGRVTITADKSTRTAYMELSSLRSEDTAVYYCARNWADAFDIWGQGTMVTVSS VL: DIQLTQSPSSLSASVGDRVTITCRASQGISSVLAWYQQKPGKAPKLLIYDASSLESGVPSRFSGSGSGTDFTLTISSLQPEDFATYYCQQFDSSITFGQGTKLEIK : 124
Refmab #4 (antibody, V domains shown, The alanine scan used IgG or Fab) VH: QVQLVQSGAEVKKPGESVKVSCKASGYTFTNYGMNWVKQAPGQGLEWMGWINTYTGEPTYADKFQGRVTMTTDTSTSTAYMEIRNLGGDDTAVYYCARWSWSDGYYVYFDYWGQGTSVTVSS VL: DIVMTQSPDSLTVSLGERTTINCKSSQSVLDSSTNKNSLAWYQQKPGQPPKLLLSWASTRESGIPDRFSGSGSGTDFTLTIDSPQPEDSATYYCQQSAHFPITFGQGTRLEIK : 117
Refmab #1 (antibody, V domains shown, The alanine scan used IgG or Fab; also called hP67.6) VH: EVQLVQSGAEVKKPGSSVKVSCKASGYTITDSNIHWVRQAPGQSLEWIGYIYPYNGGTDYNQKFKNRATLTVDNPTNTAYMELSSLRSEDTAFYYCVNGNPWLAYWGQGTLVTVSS VL: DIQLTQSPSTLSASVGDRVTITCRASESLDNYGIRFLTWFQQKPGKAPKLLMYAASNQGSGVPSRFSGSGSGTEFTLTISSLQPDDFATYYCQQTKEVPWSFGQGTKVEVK : 91.6
